Molecular target: UniProtKB P51449
Sequence (P51449 other isoform, or with tags, fused parts or gaps): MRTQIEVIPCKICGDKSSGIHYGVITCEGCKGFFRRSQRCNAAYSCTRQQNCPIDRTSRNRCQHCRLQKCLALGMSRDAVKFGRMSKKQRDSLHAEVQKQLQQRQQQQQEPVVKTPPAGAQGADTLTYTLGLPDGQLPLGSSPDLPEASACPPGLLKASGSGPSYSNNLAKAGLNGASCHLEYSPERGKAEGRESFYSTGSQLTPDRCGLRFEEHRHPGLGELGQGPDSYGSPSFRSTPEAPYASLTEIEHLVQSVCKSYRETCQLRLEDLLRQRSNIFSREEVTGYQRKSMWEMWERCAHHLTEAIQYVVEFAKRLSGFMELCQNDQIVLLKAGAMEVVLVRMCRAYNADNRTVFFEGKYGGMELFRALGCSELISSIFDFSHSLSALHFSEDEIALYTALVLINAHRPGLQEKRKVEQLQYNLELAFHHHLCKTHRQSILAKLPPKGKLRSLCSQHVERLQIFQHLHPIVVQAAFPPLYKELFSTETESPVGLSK
Assay: RORγt (full-length human) reporter assay, Conditions B or C
Assay type: cell-based
Conditions: read-out: RORγt (FL) Reporter Assay B or C, IC50
Property Label: pIC50
Please treat pIC50 as minus the base-10 logarithm of the molar concentration.

Answered cases to consult:
For the compound C[C@H]1CCCN1C(=O)c1nc(C(=O)N[C@H]2C[C@H](O)C2)sc1-c1cnc(N[C@H](C2CC2)C(F)(F)F)cc1C(F)F [Example 320] , what pIC50 is on record?
7.34

Given the compound C[C@H]1CCCN1C(=O)c1nc(C(N)=O)sc1-c1cnc(NC(C)(C)C)cc1C(F)(F)F [Example 308] , what is its reported pIC50?
6.59

// pIC50 lookup, key: C[C@H](Nc1cc(C(F)F)c(-c2sc(C(=O)N[C@@H]3CC[C@@H](O)C3)nc2C(=O)N2CC(F)(F)C[C@@H]2C)cn1)C(F)(F)F [Example 410]
7.74

Can you look up the measured pIC50 of C[C@H]1CCCN1C(=O)c1nc(C(=O)N[C@@H]2CCC[C@H]2O)sc1-c1cnc(NC(C)(C)C)cc1C(F)(F)F [Example 351] for me?
8.10

Look at this compound and give its reported pIC50. CC[C@H](Nc1cc(C(F)F)c(-c2sc(C(=O)N[C@H]3CC[C@H]3O)nc2C(=O)N2CCC[C@@H]2C)cn1)C(F)(F)F (relative stereo) [Example 380]
7.74

New cases:
Quick check: pIC50 of C[C@H](NC(=O)c1nc(C(=O)N2CCC[C@@H]2C)c(-c2cnc(NC(C)(C)C)cc2C(F)F)s1)C(C)(C)O [Example 270] ?
8.29

Endpoint output: pIC50 of C[C@H](NC(=O)c1nc(C(=O)N2CC(F)(F)C[C@@H]2C)c(-c2cnc(NC3(C)CCC3)cc2C(F)F)s1)C(C)(C)O [Example 326] . Value?
7.01

Need pIC50, item C[C@H](Nc1cc(C(F)F)c(-c2sc(C(=O)N[C@@H]3CC[C@@H](O)C3)nc2C(=O)N2C3CCC2CC3)cn1)C(F)(F)F [Example 438]
7.08

Item under review: CC[C@H](Nc1cc(C(F)F)c(-c2sc(C(=O)N[C@H]3CC[C@H](O)C3)nc2C(=O)N2CCC[C@@H]2C)cn1)C(F)(F)F [Example 398] . Reported pIC50?
7.41

Suppose we examine the compound C[C@H]1CCCN1C(=O)c1nc(C(=O)N[C@@H]2COC[C@H]2O)sc1-c1cnc(NC(C)(C)C)cc1C(F)F [Example 402] ; what pIC50 value has been reported?
7.43

So what does the record say about pIC50 for CC[C@@H](Nc1cc(C(F)(F)F)c(-c2sc(C(=O)NCC(C)(C)O)nc2C(=O)N2CCC[C@@H]2C)cn1)C(F)(F)F [Example 282] ?
7.72

Could you share which pIC50 value was measured for C[C@H](NC(=O)c1nc(C(=O)N2CCC[C@@H]2C)c(-c2cnc(NC3(C)CCC3)cc2C(F)F)s1)C(C)(C)O [Example 322] ?
7.31

So what's the measured pIC50 for this one? C[C@H]1CCCN1C(=O)c1nc(C(=O)N[C@@H]2CC[C@H]2O)sc1-c1cnc(NC(C)(C)C)cc1C(F)F (relative stereo) [Example 403]
7.44

Reference source: patent US10975068B2
